Reference for the values: the RNAGym collection of RNA variant scans (doi:10.7554/elife.90254)

For each record, write down the corresponding self-cleavage.
B1: LINE1-mini (parent)
chain: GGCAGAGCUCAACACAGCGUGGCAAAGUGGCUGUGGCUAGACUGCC

Variants of: B1
Assay: self-cleavage, relative activity (ratio to wild type); higher = more cleavage; in vitro, sequencing; the parent is a self-cleaving ribozyme
Numbers only.

Worked examples follow.
> print(dat)
   variantkey  quantitativeresult
1    C3G U32G                0.11
2   C15G U28A                0.04
3    C3G U38A                0.18
4   U32C A41C                0.09
5    U9A U43A                 0.2
6        G21A                2.19

Would you mind giving self-cleavage for every variant in the list below?
1. G30U G35C
2. G17A G19A
3. U9A U20A
4. G1C G27C

1: 0.07; 2: 0.62; 3: 0.16; 4: 0.14

Would you mind giving self-cleavage for every variant in the list below?
1. A14U C15U
2. C10U A11C
3. A25G G44C

[0.18, 0.05, 0.19]

Would you mind giving self-cleavage for every variant in the list below?
1. A16C C23G
2. U9C G30A
3. C15G A16C
4. G33C C46U
5. C3A A14G
6. C31A U34A
7. A12G U20C
8. U20A U38A

1. 0.08
2. 0.03
3. 0.11
4. 0.05
5. 0.61
6. 0.05
7. 0.08
8. 0.43

Query (variant): G5U A14U ; field requested: self-cleavage 0.07
